- assayedTarget: α-Chymotrypsin (Bos taurus)
- Construct: purchased PL Biochemical Co
- experimentSummary: α-Chymotrypsin inhibitory activity (casein hydrolysis)
- Assay type: biochemical
- experimentalConditions: enzyme 200 μg protein; substrate casein; read-out: IC50 concentration, α-Chymotrypsin
reportedMetric: IC50

Ask: Report IC50 from α-Chymotrypsin (Bos taurus) testing of N=C(N)NCCCCNC(=O)[C@H](Cc1ccccc1)NC(=O)[C@H]1O[C@@H]1C(=O)O
Result: > 128 µM

* * *

- assayedTarget: Pepsin (Sus scrofa)
- Construct: purchased PL Biochemical Co
- Sequence (P00791 60-385): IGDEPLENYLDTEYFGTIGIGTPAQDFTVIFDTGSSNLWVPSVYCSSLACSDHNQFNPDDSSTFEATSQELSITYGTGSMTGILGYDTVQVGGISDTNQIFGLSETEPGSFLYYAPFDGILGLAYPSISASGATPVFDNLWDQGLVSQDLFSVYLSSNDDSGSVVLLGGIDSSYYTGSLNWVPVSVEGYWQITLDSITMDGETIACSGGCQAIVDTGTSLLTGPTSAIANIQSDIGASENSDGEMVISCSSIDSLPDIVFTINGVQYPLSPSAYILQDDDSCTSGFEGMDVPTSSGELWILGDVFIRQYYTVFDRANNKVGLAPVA
- experimentSummary: Pepsin inhibitory activity (casein hydrolysis)
- Type: biochemical
pIC50: −log10 of the molar value.
reportedMetric: pIC50

Ask: Report pIC50 from Pepsin (Sus scrofa) testing of N=C(N)NCCCCNC(=O)[C@H](Cc1ccc(O)cc1)NC(=O)[C@H]1O[C@@H]1C(=O)O
Result: < 3.91

* * *

Please provide measured IC50 for the entries that follow.
- assayedTarget: Papain (Carica papaya, UniProt P00784)
- Construct: purchased Boehringer Mannheim AG
- Sequence (P00784 134-345): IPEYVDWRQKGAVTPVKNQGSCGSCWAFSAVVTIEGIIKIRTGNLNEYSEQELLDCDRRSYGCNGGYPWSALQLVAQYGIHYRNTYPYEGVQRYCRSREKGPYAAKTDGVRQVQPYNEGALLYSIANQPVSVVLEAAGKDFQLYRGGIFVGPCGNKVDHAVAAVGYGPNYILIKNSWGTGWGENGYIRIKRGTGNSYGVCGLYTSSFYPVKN
- experimentSummary: Papain inhibitory activity (casein hydrolysis)
- Assay type: biochemical
Give bare numbers, in µM.

N=C(N)NCCCCNC(=O)[C@H](Cc1ccc(O)cc1)NC(=O)[C@H]1O[C@@H]1C(=O)O :: 0.0663

Ask: Answer with the recorded IC50 for the compound listed here: N=C(N)NCCCCNC(=O)[C@H](Cc1ccccc1)NC(=O)[C@H]1O[C@@H]1C(=O)O
Result: 0.0664

* * *

- assayedTarget: α-Chymotrypsin (Bos taurus)
- Construct: purchased PL Biochemical Co
- experimentSummary: α-Chymotrypsin inhibitory activity (casein hydrolysis)
- Format: biochemical
- Excerpt: The enzyme reactions were all measured according to the prescribed methods. (α-chymotrypsin and pepsin used are those manufactured by PL Biochemical Co., and trypsin is that manufactured by Wako Junyaku Co.)
pIC50: −log10 of the molar value.
reportedMetric: pIC50

Ask: Answer with the recorded pIC50 for the molecule listed here: N=C(N)NCCCCNC(=O)[C@H](Cc1ccc(O)cc1)NC(=O)[C@H]1O[C@@H]1C(=O)O
Result: < 3.91

* * *

- assayedTarget: Bromelain (Ananas comosus, UniProt P14518)
- Construct: purchased Boehringer Mannheim AG
- Sequence (P14518 whole entry): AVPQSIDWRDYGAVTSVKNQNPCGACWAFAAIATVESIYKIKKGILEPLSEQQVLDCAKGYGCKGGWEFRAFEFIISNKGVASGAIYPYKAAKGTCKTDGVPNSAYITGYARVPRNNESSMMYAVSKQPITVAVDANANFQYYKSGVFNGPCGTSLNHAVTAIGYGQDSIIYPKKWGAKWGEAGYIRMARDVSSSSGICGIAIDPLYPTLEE
- experimentSummary: Bromelain inhibitory activity (casein hydrolysis)
- Type: biochemical
reportedMetric: pIC50
Give bare numbers, as −log10 of the molar value.

Ask: Answer with the recorded pIC50 for the compound listed here: N=C(N)NCCCCNC(=O)[C@H](Cc1ccc(O)cc1)NC(=O)[C@H]1O[C@@H]1C(=O)O
Result: 6.45
